Attribution: PubChem BioAssay AID624464

Quick list: potentiation per entry.
SYSTEM: D(2) dopamine receptor (Homo sapiens)
ASSAY_PROTOCOL: Beta-Arrestin HTS for Positive Allosteric Modulators of the Human D2 Dopamine Receptor: Potentiators
TEST_CONTEXT: DiscoveRx D2 beta-arrestin cells, luminescence, 90 min; hits give high values; 100% = 57 uM dopamine signal
The campaign covered roughly 360,000 compounds. About 810 (0.23%) were called active. The sample as a whole holds a higher share of actives than the screen did.
A number alone suffices; assume %.

CCOc1ccc(CCNC(=O)CCc2nnc3ccc(N4CCCC4)nn23)cc1OCC : 2.77
CC(=O)N1CCN(c2ccccc2NC(=S)NC(=O)c2cc3ccccc3o2)CC1 : 1.52
Nc1nc(CSc2nnnn2-c2ccccc2)nc(Nc2ccccc2)n1 : 4.76

Requested read-out: potentiation. Entry: `COc1cccc(CNc2ncc(-c3ccccc3)n2C)c1`
-30.3

Requested read-out: potentiation. Entry: `CCCCC(=O)Nc1nnc(S(=O)(=O)N(C)Cc2ccco2)s1`
-7.89

Requested read-out: potentiation. Entry: `COC(=O)CNC(=O)c1ccccc1[N+](=O)[O-]`
-2.49
